experiment description: CCTE_Padilla_ZF_Score.Living: CCTE's 144 Hour Post-fertilization zebrafish Assay Score for Viability, Padilla Lab (AID 2284410);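 also: larval death at 6 dpf judged by absent heartbeat or coagulation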
Procedure: CCTE_Padilla_ZF_Phenotype_Score is a whole embryo, multiplexed assay using zebrafish ova exposed for 144 hours post fertilization on a 96-well plate.CCTE_Padilla_ZF_Score.Living is one of one assay component(s) measured or calculated from the CCTE_Padilla_ZF_Phenotype_Score assay. […] This assay endpoint, CCTE_Padilla_ZF_Score.Living, was analyzed in the positive analysis fitting direction relative to DMSO as the negative control and baseline of activity. […]
The source made the active and inactive calls. The calls were made as follows: active = hit-call score of the fitted dose curve at least 0.9, where 1 is the maximum; inactive = score below 0.9.
Labels: label 1 = active, label 0 = inactive

> print(dat)
                                    molecule  label.value
 1                 OCC(F)(F)C(F)(F)C(F)(F)CO      label 0
 2  CCN(CCO)S(=O)(=O)C(F)(F)C(F)(F)C(F)(F)C(F)(F)C(F)(F)C(F)(F)C(F)(F)C(F)(F)F      label 0
 3  NC(=O)C(F)(F)C(F)(F)C(F)(F)C(F)(F)C(F)(F)C(F)(F)C(F)(F)F      label 0
 4  OCCCC(F)(F)C(F)(F)C(F)(F)C(F)(F)C(F)(F)C(F)(F)C(F)(F)C(F)(F)F      label 0
 5  OCC(O)CC(F)(F)C(F)(F)C(F)(F)C(F)(F)F (stereo unspecified)      label 0
 6  OCC(F)(F)C(F)(F)C(F)(F)C(F)(F)C(F)(F)C(F)(F)C(F)(F)C(F)(F)CO      label 1
 7  O=C(O)C(F)(F)C(F)(F)C(F)(F)OC(F)(C(F)(F)F)C(F)(F)F      label 0
 8              NC(=O)C(F)(F)C(F)(F)C(F)(F)F      label 0
 9             CCOC(=O)CC(=O)C(F)(F)C(F)(F)F      label 0
10        OCCCCC(F)(F)C(F)(F)C(F)(F)C(F)(F)F      label 1
11                   NC(O)(C(F)(F)F)C(F)(F)F      label 0
